Assay: in vitro
Details: African green monkey
I'd appreciate it if you could supply CC50 at 3 days values for the items below.

Request: I am curious: what CC50 at 3 days value has been reported for OC[C@H]1C[C@@H]2N[C@@H]2[C@@H](O)[C@@H]1O [Compound 21] ?
Result: > 200 µM

Request: Given OC[C@@H]1[C@@H](O)[C@H](O)[C@@H](O)CN1CCCCCOCC12CC3CC(CC(C3)C1)C2 [Compound 5] , state its recorded CC50 at 3 days.
Result: 200 µM

Request: Which CC50 at 3 days value is on record for O=S1(=O)N[C@H]2[C@H](CO)[C@@H](O)[C@H](O)[C@@H](O)[C@H]2O1 [Compound 17] ?
Result: > 200 µM

Request: // lookup CC50 at 3 days for O=S1(=O)O[C@@H]2[C@H](O)[C@@H](O)[C@H](O)[C@@H](CO)[C@@H]2O1 [Compound 11, 1,6-epi-cyclophellitol cyclosulfate]
Result: > 200 µM

Request: What value of CC50 at 3 days has been reported for the following compound? O=S1(=O)O[C@@H]2[C@@H](O)[C@H](O)[C@@H](CO)C[C@@H]2O1 [Compound 22]
Result: > 200 µM

Request: Which CC50 at 3 days reading was recorded for the compound OC[C@H]1C[C@H]2[C@@H]([C@@H](O)[C@@H]1O)N2CCCCCOCc1ccc(-c2ccccc2)cc1 (stereo partly shown) [Compound 24] ?
Result: 200 µM

Request: Can you look up the measured CC50 at 3 days of O=S1(=O)N[C@@H]2[C@H](O)[C@@H](O)[C@H](O)[C@@H](CO)[C@@H]2O1 [Compound 18] for me?
Result: > 200 µM

###

Assay: in vitro
Conditions: African green monkey
measured-quantity: CC50 (µM)
Numeric only. Scale: µM

Request: Need CC50 of OC[C@@H]1[C@@H](O)[C@H](O)[C@@H](O)CN1CCCCCOCc1cc2ccccc2c2ccccc12 [Compound 3] , thanks.
Result: 50

###

System: SARS-CoV-2
Test: microbe, parasite or virus in culture
Type: cell-based
Conditions: Severe acute respiratory syndrome coronavirus 2, Vero C1008, read-out: EC50 (μM), SARS-CoV-2 CPE reduction
Labelling: EC50 reported below 60 µM becomes label 1; at or above becomes label 0.

Request: Find out if reported EC50 for OC[C@H]1C[C@H]2[C@@H]([C@@H](O)[C@@H]1O)N2CCCCCOCc1cccc2ccccc12 (stereo partly drawn) [Compound 28] is less than 60 µM
Result: label 1

Request: Hello, I'm reviewing records and need to know if EC50 of CCCCN1[C@@H]2[C@@H](O)[C@H](O)[C@@H](CO)C[C@@H]21 (stereo partly drawn) [Compound 26] is below 60 µM. Could you check?
Result: label 0

Request: I'd appreciate it if you could check whether OC[C@H]1C[C@@H]2N[C@@H]2[C@@H](O)[C@@H]1O [Compound 21] has EC50 smaller than 60 µM.
Result: label 0

Request: Below 60 µM on EC50? Entry OC[C@H]1C[C@H]2[C@@H]([C@@H](O)[C@@H]1O)N2CCCCCOCc1ccc(-c2ccccc2)cc1 (stereo partly drawn) [Compound 24]
Result: label 1

Request: Dear reviewer, please state whether OC[C@H]1C[C@H]2[C@@H]([C@@H](O)[C@@H]1O)N2CCCCCOCc1ccc2ccccc2c1 (stereo partly drawn) [Compound 23] has EC50 strictly beneath 60 µM.
Result: label 0

Request: Is EC50 strictly under 60 µM for the entry OC[C@H]1C[C@H]2[C@@H]([C@@H](O)[C@@H]1O)N2CCCCCOCC12CC3CC(CC(C3)C1)C2 (stereo partly drawn) [Compound 27] ?
Result: label 1

Every entry's value here was drawn from paper PMC11363342.
